Source of measurements: the supplement of paper PMC12042874

# ASSAY EXPLANATION: amyloid nucleation score (Sup35N fusion, yeast selection) (log enrichment); library NNK3; higher = more nucleation; inactive = no reads after selection;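 also: zero at mode of non-aggregating sequences after 7 days selection at 30°C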
MEASUREMENT KIND: amyloid nucleation score

Below, each entry is followed by its recorded amyloid nucleation score result.
1) SLSLNIQGSNYFLHIVNIGR = inactive
2) SQLQVISKIENSRKVIQRSS = inactive
3) VPGRVMVLRIWIYRNVQKRG = inactive
4) SFVYCIVYLQSPFVLSTMVG = 2.62

// "FFDTTYLLNSGMNVVLDAYF" : amyloid nucleation score value = 1.76

// "DYATESFTVITLLGILLDRG" : amyloid nucleation score value = inactive

// "SFLHTQSAKDTFVHNAVTYT" : amyloid nucleation score value = inactive

// "NQQWIP" : amyloid nucleation score value = inactive

// "CPNVYIAIPIFS" : amyloid nucleation score value = -0.423

// "TYEGITVVTFVSYSYAIREP" : amyloid nucleation score value = 0.703

// "ACYNSKRMGGMYNSRVLDHD" : amyloid nucleation score value = inactive

// "VWDYLVAYYVALKNVTDSGQ" : amyloid nucleation score value = inactive

// "QGLSGRRGYSDRY" : amyloid nucleation score value = inactive

// "MLDISMEVSGCSILS" : amyloid nucleation score value = -0.261

// "NALCSHTILLYGEVMLKSWL" : amyloid nucleation score value = inactive

// "GGKLGTLCSNSRYGSVHMGV" : amyloid nucleation score value = inactive

// "DEVVWY" : amyloid nucleation score value = inactive

// "LNFSHGSCGSFCGSIMIST" : amyloid nucleation score value = inactive

// "VVGRSCLFYSIVMY" : amyloid nucleation score value = 0.419

// "FYFPLYDL" : amyloid nucleation score value = inactive

// "APLYTANAMHSRCILSWVFL" : amyloid nucleation score value = 2.25

* * *

# ASSAY EXPLANATION: amyloid nucleation score (Sup35N fusion, yeast selection) (log enrichment); library NNK1; higher = more nucleation; inactive = no reads after selection
MEASUREMENT KIND: amyloid nucleation score
Respond numerically, and do not add a unit to the figure.

1. WLGRYQLLWLALGWIITRRG = 1.51
2. REEYYGIPSEINGHTTLVYS = 1.03
3. HSAFSWNYRDSFVEGCSSHG = 0.018
4. SYSMQRRKCTPAFCFA = -0.36
5. IEYFCWFAILGKPFESGIGS = 0.991

// "WYRLFALIGLAYLH" : amyloid nucleation score value = 0.586

// "PIVMCFFGKV" : amyloid nucleation score value = -0.201

// "LWNIIVSIKGRIVESLAPTY" : amyloid nucleation score value = -0.113

// "RTLHRLLSSINAKGDRYRLR" : amyloid nucleation score value = -0.935

// "GMSGGWPIYKLGSS" : amyloid nucleation score value = 1.05

// "LQEVSWYSTVALTLSNLKWG" : amyloid nucleation score value = -0.389

// "NDQVNVNFS" : amyloid nucleation score value = 0.338

// "ACPDHMRV" : amyloid nucleation score value = 1.33

// "ILCICY" : amyloid nucleation score value = 2.48

// "SWFHGLEGVLSHATMSLGFA" : amyloid nucleation score value = 0.1

// "RVLSSTNHSAYHWIEKGSTF" : amyloid nucleation score value = 1.01

// "IYKVEFLTCFLDEGGWSPKV" : amyloid nucleation score value = -0.692

* * *

# ASSAY EXPLANATION: amyloid nucleation score (Sup35N fusion, yeast selection) (log enrichment); library NNK1; higher = more nucleation; inactive = no reads after selection
MEASUREMENT KIND: amyloid nucleation score

Below, each entry is followed by its recorded amyloid nucleation score result.
1) DNDYDLDPVGIRVHLFNQ = inactive
2) WNYPYIFVGGPKKIGGGRRG = 0.584
3) VACRRTSKGEYYFQSMICDL = inactive
4) FYAVVEQIKFMRSLNLNLLN = -0.08

// "ECMRTRFMGNYNGPGISILY" : amyloid nucleation score value = inactive

// "ISTSLSTGLGKLRESWLTYH" : amyloid nucleation score value = inactive

* * *

# ASSAY EXPLANATION: amyloid nucleation score (Sup35N fusion, yeast selection) (log enrichment); library NNK3; higher = more nucleation; inactive = no reads after selection
MEASUREMENT KIND: amyloid nucleation score

1. LQRGTQVYRCSLSFVRNVRF = inactive
2. RVEMICFQDYLEYKRE = inactive
3. NLSALMLLLQDRDRAISRPR = 0.919

* * *

# ASSAY EXPLANATION: amyloid nucleation score (Sup35N fusion, yeast selection) (log enrichment); library NNK2; higher = more nucleation; inactive = no reads after selection
Listing: amyloid nucleation score of selected sequences
Respond numerically, and do not add a unit to the figure.

Below, each entry is followed by its recorded amyloid nucleation score result.
1) RPRRSTGCIFVDCKSKQHCI = 2.84
2) EALYALLSGGASNLKSHRLL = 0.26
3) ILLLFVPSDFRNICFE = -0.532

Read the next record carefully.
// "LGLNLTRDYLMLGKRLKCCR" : amyloid nucleation score value = -0.993

* * *

# ASSAY EXPLANATION: amyloid nucleation score (Sup35N fusion, yeast selection) (log enrichment); library NNK3; higher = more nucleation; inactive = no reads after selection
MEASUREMENT KIND: amyloid nucleation score

1) TTEDLSVG = inactive
2) TRFLCSGV = inactive
3) NYRERS = inactive

* * *

Listing: amyloid nucleation score of selected substances
# ASSAY EXPLANATION: amyloid nucleation score (Sup35N fusion, yeast selection) (log enrichment); library NNK1; higher = more nucleation; inactive = no reads after selection
Respond numerically, and do not add a unit to the figure.

Below, each entry is followed by its recorded amyloid nucleation score result.
1) CHWSCRSEVMPESVTDAGGW = -0.072
2) SNNYLLCGIDGEVL = 1.07
3) DAADMTGLFNRLLCVFEYVW = 0.797
4) HMLWSFLLITWYGMICRKGG = -0.15
5) YRGTLDNKMGFYIGYHHDRS = -0.322

// "GFTFVLLLSLGLVGWCETVK" : amyloid nucleation score value = -0.511

// "NICTLYPT" : amyloid nucleation score value = 0.236

// "HLRWQMDWCSHNNGMDVMRG" : amyloid nucleation score value = 3.71

// "AGYFCL" : amyloid nucleation score value = -0.449

// "DLVCDFYVGLV" : amyloid nucleation score value = 2.42

// "CTSPLVLIHKYYYVMVAVHS" : amyloid nucleation score value = 0.821

// "TLRLKWSWEADCDI" : amyloid nucleation score value = 2.49

// "RYDPMLWINLYCFLITGG" : amyloid nucleation score value = 0.334

// "LRCLYIG" : amyloid nucleation score value = -0.818

* * *

Listing: amyloid nucleation score of selected substances
# ASSAY EXPLANATION: amyloid nucleation score (Sup35N fusion, yeast selection) (log enrichment); library NNK1; higher = more nucleation; inactive = no reads after selection
Respond numerically, and do not add a unit to the figure.

Below, each entry is followed by its recorded amyloid nucleation score result.
1) ITREVSL = 1.36
2) ALSLVISCSGSWRKGRRFLS = -0.53
3) MFGIFM = 3.58

// "KCIWFMHDFCYMVLMR" : amyloid nucleation score value = -0.164

// "NKAVKLQSDPMGALC" : amyloid nucleation score value = 0.701

// "LDEVHESSIRSGNY" : amyloid nucleation score value = 3.12

// "FFSKNT" : amyloid nucleation score value = -0.041

// "FNDEHKSSIG" : amyloid nucleation score value = -0.549

// "WGAYTLKVGVDLIP" : amyloid nucleation score value = 0.195

* * *

# ASSAY EXPLANATION: amyloid nucleation score (Sup35N fusion, yeast selection) (log enrichment); library NNK2; higher = more nucleation; inactive = no reads after selection
MEASUREMENT KIND: amyloid nucleation score

Below, each entry is followed by its recorded amyloid nucleation score result.
1) TRMCGMGTQGGLSRF = 0.257
2) VPCRSPVSGASKRTYLLINV = 0.045
3) FCSCWNSEFNENSFVWRNIL = 5.35
4) VKGGSRS = -0.186

// "LFLTDTLMMYINSECR" : amyloid nucleation score value = 1.75

// "CSAVAALLPILGMELIGTSI" : amyloid nucleation score value = -0.41

// "PWFMFPCRHRYRQYLWCFCA" : amyloid nucleation score value = 2.52

// "HGGFRDFQSLSVPIRYDLYD" : amyloid nucleation score value = 1.14

// "AHFQYRGNRAFQVWNYCGKY" : amyloid nucleation score value = 2.55

* * *

# ASSAY EXPLANATION: amyloid nucleation score (Sup35N fusion, yeast selection) (log enrichment); library NNK1; higher = more nucleation; inactive = no reads after selection
# if value of amyloid nucleation score reaches 0.5, tag 1 (yes); if it stays below, tag 0 (no)

1) APEVNRLTCSYRSDRLKTS = 0 (no)
2) WTCLKQEPLAWRWL = 0 (no)
3) YSIFREW = 0 (no)
4) HWYVTVCLVSMCQVGKGKDN = 1 (yes)
5) DLYFIKDSTLCTISLFLIYW = 0 (no)

Could you please find out whether "RRSGTLDGSGSGSCVRLPPN" has amyloid nucleation score that meets 0.5 or exceeds it?
0 (no)

Could you please find out whether "LLSCSYMKIVFI" has amyloid nucleation score that meets 0.5 or exceeds it?
1 (yes)

Could you please find out whether "RLWYGRSPWELVTIRSQARG" has amyloid nucleation score that meets 0.5 or exceeds it?
0 (no)

Could you please find out whether "SFILCGISRSYQMLLMTRYL" has amyloid nucleation score that meets 0.5 or exceeds it?
1 (yes)

Could you please find out whether "PLDHLHLSKWCTSEKDLVV" has amyloid nucleation score that meets 0.5 or exceeds it?
1 (yes)
